target: human MCH-1R (human, UniProt Q99705 1-353); test: cell-based or functional assay
Sequence (Q99705 whole entry, form in doubt): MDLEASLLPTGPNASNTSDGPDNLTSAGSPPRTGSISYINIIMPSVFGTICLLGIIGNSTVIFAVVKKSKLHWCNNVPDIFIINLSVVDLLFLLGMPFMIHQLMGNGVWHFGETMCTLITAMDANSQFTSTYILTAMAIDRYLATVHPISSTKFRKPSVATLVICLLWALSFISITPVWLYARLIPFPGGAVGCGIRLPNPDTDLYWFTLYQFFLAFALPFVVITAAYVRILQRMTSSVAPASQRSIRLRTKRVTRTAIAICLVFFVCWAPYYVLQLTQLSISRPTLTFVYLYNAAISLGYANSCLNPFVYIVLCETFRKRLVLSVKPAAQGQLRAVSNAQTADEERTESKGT
Bridges are numbered along the chain shown (N, C = ends). Where no end group is shown, it is not given here. [ ]: non-standard residue; d: D form.
Metric Name: Activation % at 10 µM (aequorin functional assay) (%)

{"Binder": "RCMLGRVXRPC (Cha^13 (2-cyclohexyl-alanine), also called Cha^13) [SEQ. ID. NO. 31]", "Observed Measurement": 93}
{"Binder": "Ac-RCML[dS]RVYRPC-NH2 (disulfide 2-11 (inferred), also called D-Ser^10) [SEQ. ID. NO. 19]", "Observed Measurement": 47}
{"Binder": "RCMLGRVYRXC (Sar^15 (sarcosine)) [SEQ. ID. NO. 32]", "Observed Measurement": 113}
{"Binder": "DFDMLRCMLGRVYRPCWQV (ligand, disulfide 7-16 (inferred), cyclic 19-amino acid peptide; also called hMCH; mammalian MCH) [human MCH (melanin-concentrating hormone), SEQ. ID. NO. 1]", "Observed Measurement": 100}
